# System name: Adenosine receptor A2b (Homo sapiens, UniProt P29275)
# Sequence (P29275 whole entry): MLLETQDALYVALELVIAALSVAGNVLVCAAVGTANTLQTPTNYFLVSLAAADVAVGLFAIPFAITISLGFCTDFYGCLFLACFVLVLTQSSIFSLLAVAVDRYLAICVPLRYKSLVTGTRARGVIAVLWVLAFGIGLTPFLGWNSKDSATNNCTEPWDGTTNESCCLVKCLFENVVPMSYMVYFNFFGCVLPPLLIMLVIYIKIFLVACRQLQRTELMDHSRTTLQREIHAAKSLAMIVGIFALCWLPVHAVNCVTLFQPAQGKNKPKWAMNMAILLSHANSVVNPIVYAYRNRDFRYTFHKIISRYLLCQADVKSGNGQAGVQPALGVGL
Readout label: pKi
Please keep in mind that pKi is minus log10 of the molar concentration; only the number is needed.

Query: Would you kindly share the measured pKi for "Fc1ccccc1-c1nc(Nc2cccnc2)nnc1-c1ccnc(C(F)(F)F)c1" ?
Result: 6.65

###

# System name: UniProt:P29274
# Method summary: Radioligand Binding Assay
pKi: −log10 of the molar value.
Readout label: pKi

Query: Would you kindly share the measured pKi for Cc1nsc(Nc2nnc(-c3ccnc(C(F)(F)F)c3)c(-c3ccccc3F)n2)n1 [US12391670, Example 11] ?
Result: < 4.70

###

# System name: Adenosine receptor A2a (Homo sapiens)
# Sequence (P29274 whole entry): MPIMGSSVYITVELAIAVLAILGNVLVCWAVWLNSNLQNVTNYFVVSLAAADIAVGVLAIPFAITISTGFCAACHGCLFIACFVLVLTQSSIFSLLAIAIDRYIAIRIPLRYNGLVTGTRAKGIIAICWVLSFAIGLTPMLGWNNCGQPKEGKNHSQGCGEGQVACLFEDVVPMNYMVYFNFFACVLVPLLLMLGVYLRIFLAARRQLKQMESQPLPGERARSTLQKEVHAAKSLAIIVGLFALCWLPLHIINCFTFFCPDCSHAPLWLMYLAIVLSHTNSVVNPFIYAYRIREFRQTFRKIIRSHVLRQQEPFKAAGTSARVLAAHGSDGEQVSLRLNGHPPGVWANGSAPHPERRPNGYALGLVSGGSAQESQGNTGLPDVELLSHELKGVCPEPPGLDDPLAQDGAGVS
# Method summary: Radioligand Binding Assay
Readout label: IC50 (µM)
The figure you give is taken to be in µM; do not add the unit.

Query: Would you kindly share the measured IC50 for "Fc1ccccc1-c1nc(Nc2cccnc2)nnc1-c1ccnc(C(F)(F)F)c1" ?
Result: 24.1
